Test target: hCA IV (Homo sapiens, UniProt P22748)
Sequence (P22748 19-312): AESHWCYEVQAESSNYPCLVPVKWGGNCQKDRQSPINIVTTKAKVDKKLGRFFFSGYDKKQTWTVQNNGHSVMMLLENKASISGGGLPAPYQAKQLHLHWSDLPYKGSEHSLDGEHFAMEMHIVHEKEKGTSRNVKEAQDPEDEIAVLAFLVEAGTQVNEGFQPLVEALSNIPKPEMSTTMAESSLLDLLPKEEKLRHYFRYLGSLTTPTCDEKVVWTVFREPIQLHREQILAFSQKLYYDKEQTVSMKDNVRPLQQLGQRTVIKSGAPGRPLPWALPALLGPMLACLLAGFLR
Endpoint: Ki (nM)

* NS(=O)(=O)c1cccc(NC(=S)N2CC(=O)N3CCc4ccccc4C3C2)c1 (centres unmarked) [Compound 35b] | 47.9
* NS(=O)(=O)c1ccc(NC(=O)NCc2ccc(C(=O)N3CC(=O)N4CCc5ccccc5C4C3)cc2)cc1 (centres unmarked) [Compound 28a] | 548
* NS(=O)(=O)c1ccc(C(=O)N2CC(=O)N3CCc4ccccc4C3C2)cc1 (centres unmarked) | 8860
* NS(=O)(=O)c1cccc(NC(=O)NCc2ccc(C(=O)N3CC(=O)N4CCc5ccccc5C4C3)cc2)c1 (centres unmarked) [Compound 28b] | 851
* NS(=O)(=O)c1cccc(NC(=O)N2CC(=O)N3CCc4ccccc4C3C2)c1 (centres unmarked) [Compound 34b] | 517
* NS(=O)(=O)c1ccc(CCNC(=O)Nc2ccc(C(=O)N3CC(=O)N4CCc5ccccc5C4C3)cn2)cc1 (centres unmarked) | 6810
* NS(=O)(=O)c1ccc(NC(=O)NCc2ccc(C(=O)Nc3nc(CC(=O)N4CC(=O)N5CCc6ccccc6C5C4)cs3)cc2)cc1 (centres unmarked) [Compound 29a] | 541
* NS(=O)(=O)c1ccc(NC(=S)N2CC(=O)N3CCc4ccccc4C3C2)cc1 (centres unmarked) [Compound 35a] | 7110

* * *

Test target: hCA IV (Homo sapiens)
Construct: made in house
Assay text: stopped flow CO2 hydrase assay, hCA IV
Format: biochemical
Experimental parameters: mean from three different assays
Listing of entries alongside the reported log10 of Ki.
Endpoint: log10 of Ki (log10 of the value in µM)

* NS(=O)(=O)c1cccc(NC(=O)NCc2ccc(C(=O)Nc3nc(CC(=O)N4CC(=O)N5CCc6ccccc6C5C4)cs3)cc2)c1 (stereo not shown) [Compound 29b] | -0.10
* NS(=O)(=O)c1ccc(NC(=S)Nc2ccc([Se]Cc3ccc(C(=O)N4CC(=O)N5CCc6ccccc6C5C4)cc3)cc2)cc1 (stereo not shown) | -0.02
* NS(=O)(=O)c1ccc(NC(=O)N2CC(=O)N3CCc4ccccc4C3C2)cc1 (stereo not shown) [Compound 34a] | 0.64
* NS(=O)(=O)c1ccc(CNC(=O)Nc2ccc(C(=O)N3CC(=O)N4CCc5ccccc5C4C3)cc2)cc1 (stereo not shown) | -0.18
* NS(=O)(=O)c1ccc(CCNC(=O)N2CC(=O)N3CCc4ccccc4C3C2)cc1 (stereo not shown) [Compound 34c] | 0.62
* NS(=O)(=O)c1ccc(CCNC(=S)N2CC(=O)N3CCc4ccccc4C3C2)cc1 (stereo not shown) [Compound 35c] | 0.92

* * *

Test target: SmCA (Schistosoma mansoni)
Sequence (A0A3Q0KSG2 entry or part of it): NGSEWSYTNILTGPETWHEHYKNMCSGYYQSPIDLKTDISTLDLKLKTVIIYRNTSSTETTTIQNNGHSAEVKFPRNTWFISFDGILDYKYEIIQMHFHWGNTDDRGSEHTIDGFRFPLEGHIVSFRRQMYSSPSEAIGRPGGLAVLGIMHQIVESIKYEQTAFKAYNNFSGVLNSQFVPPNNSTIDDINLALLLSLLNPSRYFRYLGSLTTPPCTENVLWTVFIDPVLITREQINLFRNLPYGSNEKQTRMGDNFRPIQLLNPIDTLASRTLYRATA
Assay text: biochemical
Experimental parameters: stopped flow CO2 hydrase assay; mean from three different assays; read-out: Ki SmCA
pKi: −log10 of the molar value.
Listing of entries alongside the reported pKi.
Endpoint: pKi

• NS(=O)(=O)c1ccc(CCC(=O)N2CC(=O)N3CCc4ccccc4C3C2)cc1 (centres unmarked) [Compound 4b] = 7.03
• NS(=O)(=O)c1ccc(C(=O)Nc2nc(CC(=O)N3CC(=O)N4CCc5ccccc5C4C3)cs2)cc1 (centres unmarked) [Compound 30] = 8.11
• NS(=O)(=O)c1cccc(NC(=O)N2CC(=O)N3CCc4ccccc4C3C2)c1 (centres unmarked) [Compound 34b] = 5.14
• NS(=O)(=O)c1ccc(NC(=O)NCc2ccc(C(=O)Nc3nc(CC(=O)N4CC(=O)N5CCc6ccccc6C5C4)cs3)cc2)cc1 (centres unmarked) [Compound 29a] = 5.78
• NS(=O)(=O)c1ccc(CCNC(=O)N2CC(=O)N3CCc4ccccc4C3C2)cc1 (centres unmarked) [Compound 34c] = 8.25
• NS(=O)(=O)c1ccc(C(=O)N2CC(=O)N3CCc4ccccc4C3C2)cc1 (centres unmarked) [Compound 4a] = 5.72
• NS(=O)(=O)c1ccc(NC(=O)NCc2ccc(C(=O)N3CC(=O)N4CCc5ccccc5C4C3)cc2)cc1 (centres unmarked) [Compound 28a] = 6.21

* * *

Record set of pKi for target or system hCA I (Homo sapiens, UniProt P00915).
pKi: −log10 of the molar value.
Endpoint: pKi

* NS(=O)(=O)c1ccc(NC(=O)N2CC(=O)N3CCc4ccccc4C3C2)cc1 (stereo not drawn) [Compound 34a] | 7.15
* NS(=O)(=O)c1ccc(NC(=S)N2CC(=O)N3CCc4ccccc4C3C2)cc1 (stereo not drawn) [Compound 35a] | 6.52
* NS(=O)(=O)c1cccc(NC(=O)NCc2ccc(C(=O)N3CC(=O)N4CCc5ccccc5C4C3)cc2)c1 (stereo not drawn) [Compound 28b] | 7.02

* * *

Test target: LdCA (Leishmania donovani)
Sequence (A0A3S5H5R2 entry or part of it): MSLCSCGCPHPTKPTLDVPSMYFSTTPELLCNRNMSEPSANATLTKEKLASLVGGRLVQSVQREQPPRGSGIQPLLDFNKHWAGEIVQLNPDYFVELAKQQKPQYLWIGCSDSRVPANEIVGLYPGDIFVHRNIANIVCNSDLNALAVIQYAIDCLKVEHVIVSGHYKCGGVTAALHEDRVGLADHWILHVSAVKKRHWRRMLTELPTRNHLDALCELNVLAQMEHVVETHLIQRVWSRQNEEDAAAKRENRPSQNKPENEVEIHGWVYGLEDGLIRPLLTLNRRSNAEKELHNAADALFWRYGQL
Assay text: biochemical
pKi: −log10 of the molar value.
Endpoint: pKi

• NS(=O)(=O)c1ccc(NC(=S)Nc2ccc([Se]Cc3ccc(C(=O)N4CC(=O)N5CCc6ccccc6C5C4)cc3)cc2)cc1 (stereo not shown) = 6.56

* * *

Test target: UniProtKB P00915
Listing of entries alongside the reported Ki.
Endpoint: Ki (µM)

- NS(=O)(=O)c1cccc(NC(=S)N2CC(=O)N3CCc4ccccc4C3C2)c1 (stereo not shown) [Compound 35b]: 0.0865
- NS(=O)(=O)c1ccc(NC(=S)Nc2ccc([Se]Cc3ccc(C(=O)N4CC(=O)N5CCc6ccccc6C5C4)cc3)cc2)cc1 (stereo not shown) [Compound 9]: 0.486
- NS(=O)(=O)c1ccc(CNC(=O)Nc2ccc(C(=O)N3CC(=O)N4CCc5ccccc5C4C3)cc2)cc1 (stereo not shown) [Compound 32]: 0.0807
- NS(=O)(=O)c1cccc(NC(=O)N2CC(=O)N3CCc4ccccc4C3C2)c1 (stereo not shown) [Compound 34b]: 0.409

* * *

Test target: UniProt:A0A3Q0KSG2
Assay text: biochemical
pKi: −log10 of the molar value.
Endpoint: pKi

• NS(=O)(=O)c1ccc(NC(=S)Nc2ccc([Se]Cc3ccc(C(=O)N4CC(=O)N5CCc6ccccc6C5C4)cc3)cc2)cc1 (stereo not shown) [Compound 9] = 6.11

* * *

Test target: hCA IX (Homo sapiens)
Endpoint: Ki (nM)

* NS(=O)(=O)c1ccc(NC(=O)NCc2ccc(C(=O)N3CC(=O)N4CCc5ccccc5C4C3)cc2)cc1 (stereo not shown) [Compound 28a] | 31.8
* NS(=O)(=O)c1cccc(NC(=O)NCc2ccc(C(=O)N3CC(=O)N4CCc5ccccc5C4C3)cc2)c1 (stereo not shown) [Compound 28b] | 29.9
* NS(=O)(=O)c1ccc(CCNC(=S)N2CC(=O)N3CCc4ccccc4C3C2)cc1 (stereo not shown) [Compound 35c] | 97.1
* NS(=O)(=O)c1cccc(NC(=S)N2CC(=O)N3CCc4ccccc4C3C2)c1 (stereo not shown) [Compound 35b] | 83.3

Where do these numbers come from? They come from paper PMC9154761.
